# System: murine neural precursor cells (neurosphere cultures)
# assay-protocol: HTS of LOPAC library against secondary neurosphere cultures, MTT proliferation assay at 3 μM, day 7 (z score, P value)
# Assay type: cell-based, mouse
# experimental-conditions: LOPAC library screen, 3 μM, MTT, neurosphere cultures
Structures can show the parent of a compound that is named as a salt.
# note: exactly 0.4 is not below, so it is not fulfilled; use fulfilled for Z Score strictly under it

compound: CCC1(c2ccccc2)C(=O)NCNC1=O
class-name: not fulfilled

compound: Oc1ncnc2[nH]ncc12
class-name: fulfilled

compound: C[C@H]1C[C@H]2[C@@H]3CCC4=CC(=O)C=C[C@]4(C)[C@@]3(Cl)[C@@H](O)C[C@]2(C)[C@@]1(O)C(=O)CO
class-name: fulfilled

compound: N=C(N)NN [Aminoguanidine hydrochloride]
class-name: fulfilled

compound: COc1ccc(/C=C/C(=O)Nc2ccccc2C(=O)O)cc1OC
class-name: fulfilled

compound: Cc1ccccc1C(OCCN(C)C)c1ccccc1 (centres unmarked) [Orphenadrine hydrochloride]
class-name: not fulfilled

compound: Oc1ccc(O)cc1 [Hydroquinone]
class-name: not fulfilled

compound: CC(CN1c2ccccc2Sc2ccccc21)N(C)C (centres unmarked) [Promethazine hydrochloride]
class-name: not fulfilled

compound: Oc1ccc(C2CNCCc3c2cc(O)c(O)c3Cl)cc1 (centres unmarked) [Fenoldopam bromide]
class-name: fulfilled

compound: O=C(O)/C=C/c1ccc(O)c(O)c1
class-name: fulfilled

compound: N[C@@H](COP(=O)(O)O)C(=O)O
class-name: not fulfilled

compound: CN(C)CCCN1c2ccccc2Sc2ccc(Cl)cc21 [Chlorpromazine hydrochloride]
class-name: not fulfilled

compound: O=C(O)c1cc2cc(Cc3cccnc3)ccc2o1 [Furegrelate sodium]
class-name: fulfilled

compound: CCN(CC)CC#CCOC(=O)C(O)(c1ccccc1)C1CCCCC1 (centres unmarked) [Oxybutynin Chloride]
class-name: not fulfilled

compound: CCn1cc(C(=O)O)c(=O)c2cc3c(cc21)OCO3
class-name: not fulfilled

compound: NNc1nncc2ccccc12 [Hydralazine hydrochloride]
class-name: fulfilled

compound: CC[N+](CC)(CC)CC(=O)Nc1c(C)cccc1C.[Br-]
class-name: fulfilled

compound: CNCC[C@@H](Oc1ccccc1C)c1ccccc1
class-name: fulfilled

compound: N=C(N)NC(=O)Cc1c(Cl)cccc1Cl [Guanfacine hydrochloride]
class-name: not fulfilled

====

# Test system: murine neural precursor cells (neurosphere cultures)
# assay-protocol: HTS of LOPAC library against secondary neurosphere cultures, MTT proliferation assay at 3 μM, day 7 (z score, P value)
# Format: cell-based, mouse
# experimental-conditions: LOPAC primary screen, neurosphere MTT proliferation, 3 μM, day 7
Reported Z score values for a set of compounds
measured-endpoint: Z score

compound: Cl.Clc1cc(I)cc(Cl)c1NC1=NCCN1 [p-Iodoclonidine hydrochloride]
subject-of-test: murine neural precursor cells (neurosphere cultures)
result: −0.161
--
compound: Cl.N[C@@H](CCC(=O)O)C(=O)O [L-Glutamic acid hydrochloride]
subject-of-test: murine neural precursor cells (neurosphere cultures)
result: −0.473
--
compound: C[C@]12C=CC(=O)C=C1CC[C@H]1[C@@H]3C[C@@H](O)[C@](O)(C(=O)CO)[C@@]3(C)C[C@H](O)[C@@]12F [Triamcinolone]
subject-of-test: murine neural precursor cells (neurosphere cultures)
result: −0.184
--
compound: NC(N)=Nc1nc(CSCCC(N)=NS(N)(=O)=O)cs1 [Famotidine]
subject-of-test: murine neural precursor cells (neurosphere cultures)
result: 0.055
--
compound: CCCn1c(=O)c2[nH]c(-c3ccc(OCC(=O)Nc4ccc(C#N)cc4)cc3)nc2n(CCC)c1=O [MRS 1754]
subject-of-test: murine neural precursor cells (neurosphere cultures)
result: 0.927

====

# System: murine neural precursor cells (neurosphere cultures)
# assay-protocol: HTS of LOPAC library against secondary neurosphere cultures, MTT proliferation assay at 3 μM, day 7 (z score, P value)
# Type: cell-based, mouse
# experimental-conditions: LOPAC primary screen, neurosphere MTT proliferation, 3 μM, day 7
Structures can show the parent of a compound that is named as a salt.
Measured Z score of individual entries

molecule: NC(Cc1cc(O)c(O)cc1O)C(=O)O (racemic) [6-Hydroxy-DL-DOPA]
Z score: 1.204
--
molecule: NCC(=O)NCCC(c1ccccc1)c1ccccc1 [N-(3,3-Diphenylpropyl)glycinamide]
Z score: −1.243
--
molecule: COc1ccc(CCCOC(Cn2ccnc2)c2ccc(OC)cc2)cc1 (stereo not drawn)
Z score: −4.497
--
molecule: CCCCOC(=O)NS(=O)(=O)c1sc(CC(C)C)cc1-c1ccc(Cn2c(CC)nc3c(C)cc(C)nc32)cc1
Z score: 0.792
--
molecule: Br.Br.N=C(N)SCCc1cccc(CCSC(=N)N)c1 [1,3-PBIT dihydrobromide]
Z score: 2.221
--
molecule: Cl.NCC(O)c1ccc(O)cc1 (racemic) [(±)-Octopamine hydrochloride]
Z score: −1.567
--
molecule: O=C(C1CCCCC1)N1CC(=O)N2CCc3ccccc3C2C1 (stereo not drawn)
Z score: −2.296
--
molecule: O=C(O)CCCc1ccc(N(CCCl)CCCl)cc1
Z score: 0.081
--
molecule: COc1ccc2c(c1)[C@@]13CCCC[C@H]1[C@@H](C2)NCC3.Cl [3-Methoxy-morphanin hydrochloride]
Z score: −7.714
--
molecule: CNC(=O)[C@H]1O[C@@H](n2cnc3c(NCc4cccc(I)c4)ncnc32)[C@H](O)[C@@H]1O
Z score: −1.089
--
molecule: N=C(N)c1ccc(OCCCCCOc2ccc(C(=N)N)cc2)cc1 [Pentamidine (32), Pentamidine, reference compound]
Z score: −11.274
--
molecule: O=c1[nH]c2cc(C(F)(F)F)ccc2n1-c1cc(C(F)(F)F)ccc1O
Z score: −0.488
--
molecule: Cn1cc(C(=O)OCC2CCN(CCNS(C)(=O)=O)CC2)c2ccccc21
Z score: 0.992
--
molecule: CC(NCCc1ccc(O)cc1)C(O)c1ccc(O)cc1 (stereo not drawn) [Ritodrine hydrochloride]
Z score: −2.332
--
molecule: COc1cc2c(cc1C(F)(F)F)N(C(=O)Nc1cc(F)cc(-c3cccnc3)c1)CC2
Z score: 0.034
--
molecule: O=C(O)c1cc2cc(Cc3cccnc3)ccc2o1 [Furegrelate sodium]
Z score: 0.364
--
molecule: Nc1nnc(-c2cccc(Cl)c2Cl)c(N)n1
Z score: −1.095
--
molecule: C=C[C@H]1C[N@@]2CC[C@H]1C[C@@H]2[C@@H](O)c1ccnc2ccc(OC)cc12 [Quinidine sulfate]
Z score: −1.930

====

# Tested on: murine neural precursor cells (neurosphere cultures)
# assay-protocol: HTS of LOPAC library against secondary neurosphere cultures, MTT proliferation assay at 3 μM, day 7 (z score, P value)
# Type: cell-based, mouse
# experimental-conditions: LOPAC primary screen, neurosphere MTT proliferation, 3 μM, day 7
Counter-ions that a name gives are not always drawn.
So basically every entry gets a class from its Z score, ranges being 1: < -2; 2: ≥ -2 and < -0.2; 3: ≥ -0.2

compound: CCN(CC)CCOC(=O)c1ccc(N)cc1 [Procaine hydrochloride]
class-name: 3
//
compound: O=c1onc2n1-c1cc(Br)ccc1OC2 [NS 2028]
class-name: 1
//
compound: COc1cc2nc(N3CCN(C(=O)OCc4ccccc4)[C@H](C(=O)NC(C)(C)C)C3)nc(N)c2cc1OC [L-765,314]
class-name: 2
//
compound: CC[C@@H]1/C=C/C=C/C[C@H](C)[C@H](O)[C@](C)(O)C(=O)[C@H](C)[C@@H](O)[C@H](C)C(=O)[C@H](C)[C@@H](O)[C@H](C)/C=C/C(=O)O[C@H]2[C@@H](C)[C@@H](CC1)O[C@@]1(CC[C@@H](C)[C@@H](C[C@H](C)O)O1)[C@@H]2C [Oligomycin A]
class-name: 1
//
compound: NC(=O)CI [Iodoacetamide]
class-name: 1
//
compound: Cc1ccccc1CNc1ncnc2c1ncn2[C@@H]1O[C@H](CO)[C@@H](O)[C@H]1O [Metrifudil]
class-name: 2
//
compound: Br.CO[C@H]1CC=C2CCN3CCC4=C(CC(=O)OC4)[C@]23C1 [Dihydro-beta-erythroidine hydrobromide]
class-name: 2
//
compound: COc1ccc(NC(=O)c2ccc(-c3ccc(-c4noc(C)n4)cc3C)cc2)cc1N1CCN(C)CC1 [GR 127935 hydrochloride]
class-name: 2
//
compound: CC1=C(C(=O)O)N2C(=O)[C@@H](NC(=O)[C@H](N)C3=CCC=CC3)[C@H]2SC1 [Cephradine]
class-name: 3
//
compound: O=C(Nc1cccc(C(=O)Nc2ccc(S(=O)(=O)[O-])c3cc(S(=O)(=O)[O-])cc(S(=O)(=O)[O-])c23)c1)Nc1cccc(C(=O)Nc2ccc(S(=O)(=O)[O-])c3cc(S(=O)(=O)[O-])cc(S(=O)(=O)[O-])c23)c1.[Na+].[Na+].[Na+].[Na+].[Na+].[Na+] [NF 023]
class-name: 3
//
compound: N#CC(C#N)=Cc1ccc(O)c(O)c1 [Tyrphostin 23]
class-name: 2
//
compound: C[C@](N)(Cc1ccc(O)cc1)C(=O)O [L-alpha-Methyl-p-tyrosine]
class-name: 2
//
compound: Oc1cccc2c(O)nccc12 [1,5-Isoquinolinediol]
class-name: 3
//
compound: COc1ccc2c(c[n+](C)c3c4cc5c(cc4ccc23)OCO5)c1OC [Chelerythrine (36), Chelerythrine, reference compound]
class-name: 1
